Where these numbers come from: patent US12630600B2

Recorded hGLP-1R EC50 (pM) by entry
measured_on: human GLP-1 receptor (human, UniProt P43220)
assay_remarks: cell-based or functional assay
Starred links: 1 amine or outer side, 2 acyl side, 3 side chain; linkers in the order of their positions; H or OH if unused. Non-standard residues stand in square brackets, D forms with d. Groups on a side chain read outwards from the residue. No end group written: not given here. *: point of attachment. C20 diacid = O=C(O)CCCCCCCCCCCCCCCCCCC(=O)*; C18 diacid = O=C(O)CCCCCCCCCCCCCCCCC(=O)*; γGlu = O=C(O)[C@H](CCC(=O)[*:2])N[*:1]; αMeF = C[C@](N)(Cc1ccccc1)C(=O)O; AEEA = NCCOCCOCC(=O)O; Aib = CC(C)(N)C(=O)O

{"binder": "H[Aib]HGS[αMeF]TSDVSKYLDSRAAK([AEEA-AEEA-γGlu-C18 diacid])D[αMeF]VQ[Aib]IANT-NH2 (not fully specified; also: X13: αMePhe or Y (table)) [Peptide 286]", "hGLP-1R EC50 (pM)": 31.6}
{"binder": "H[Aib]HGS[αMeF]TSDVSK[Aib]LDSRAAK([AEEA-AEEA-γGlu-γGlu-C20 diacid])D[αMeF]VQ[Aib]IANT-NH2 [Peptide 295]", "hGLP-1R EC50 (pM)": 312}
